STUDY_TARGET: UniProt:P27361
Sequence (P27361 whole entry, species assumed): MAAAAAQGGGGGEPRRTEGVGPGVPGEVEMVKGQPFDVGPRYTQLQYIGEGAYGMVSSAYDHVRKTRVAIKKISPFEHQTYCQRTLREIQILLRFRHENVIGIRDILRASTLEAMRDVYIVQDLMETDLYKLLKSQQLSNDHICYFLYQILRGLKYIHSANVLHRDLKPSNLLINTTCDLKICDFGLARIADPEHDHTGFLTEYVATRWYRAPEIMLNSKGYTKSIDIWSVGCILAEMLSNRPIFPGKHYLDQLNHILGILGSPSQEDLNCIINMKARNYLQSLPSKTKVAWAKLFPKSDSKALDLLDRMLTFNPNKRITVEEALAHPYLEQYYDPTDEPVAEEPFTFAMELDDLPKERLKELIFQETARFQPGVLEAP
EXPERIMENTAL_ENDPOINT: IC50 (nM)
Just the number in nM, nothing appended.

Kindly state the measured IC50 obtained for O=C(Nc1ccc2[nH]nc(-c3ccncc3)c2c1)[C@@H]1CCN(CC(=O)N2CCN(c3ccc(-c4ncccn4)cc3)CC2)C1 with UniProt:P27361.
5.57
